- System: HCT-116 colon
- test_name: NCI tumour cell line growth inhibition, 48 h
TGI by entry:

compound: CCOC(=O)c1ccc(NCc2ccc3nc(OC)c(OC)nc3c2)cc1
TGI: > 100 µM

compound: CCCCCCCCCCNC(=S)OC
TGI: > 100 µM

compound: CN1/C(=C\N=O)C(C)(C)N(O)C1(C)C
TGI: > 100 µM

compound: Cc1ccc(N2C=Nn3c(nc4sc5c(c4c3=O)CCCC5)C2)cc1
TGI: > 100 µM

compound: N#C[S-].[Ce+3].c1ccc(-c2ccccn2)nc1.c1ccc(-c2ccccn2)nc1.c1ccc(-c2ccccn2)nc1
TGI: > 100 µM

compound: CCOc1ccc(Nc2ccnc3cc(Cl)ccc23)cc1
TGI: > 100 µM

compound: COc1cc(/C=C2\N=C(c3ccccc3)N(c3nc4ccccc4s3)C2=O)cc(OC)c1OC
TGI: > 100 µM

compound: C=CCC1(CN(C)C)CC/C(=C\c2cc(OC)c(OC)c(OC)c2)C1=O (stereo unspecified)
TGI: 31.3 µM

compound: CCOc1cc2c(cc1O)C=C[C@@H]1[C@@H]2CC[C@]2(C)[C@@H](O)CC[C@@H]12
TGI: 16 µM

compound: C#Cc1cccc(Nc2nc(C)nc3cc(NC(=O)CCl)ccc23)c1
TGI: 2.66 µM

compound: O=C(/C=C/c1ccc(-c2ccccc2)cc1)c1ccccc1
TGI: 30.2 µM

====

- System: ACHN renal
- test_name: NCI tumour cell line growth inhibition, 48 h

molecule: COc1c(O)cc2c(c1O)C(=O)C(Cc1ccc(O)cc1)CO2 (stereo unspecified)
system_under_test: ACHN renal
TGI: > 100 µM
//
molecule: CN1/C(=C\N=O)C(C)(C)N(O)C1(C)C
system_under_test: ACHN renal
TGI: > 100 µM
//
molecule: COc1cc2c(c(OC)c1OC)-c1ccc(OC)c(=O)cc1C(NC(=O)CCCCCNc1ccc(N=[N+]=[N-])cc1[N+](=O)[O-])CC2 (stereo unspecified)
system_under_test: ACHN renal
TGI: 24.4 µM
//
molecule: NS(=O)(=O)c1ccc(N=Nc2ccc(O)cc2)cc1
system_under_test: ACHN renal
TGI: > 100 µM
//
molecule: CC(C)(C)OC(=O)NC(Cc1ccccc1)C(=S)N1CCCC1 (stereo unspecified)
system_under_test: ACHN renal
TGI: > 100 µM
//
molecule: COC(=O)CCCCCOS(=O)(=O)c1ccc(C)cc1
system_under_test: ACHN renal
TGI: > 100 µM
//
molecule: CCOc1ccc(Nc2ccnc3cc(Cl)ccc23)cc1
system_under_test: ACHN renal
TGI: > 100 µM
//
molecule: Oc1cccc2ccc(SSc3ccc4cccc(O)c4n3)nc12
system_under_test: ACHN renal
TGI: 29.7 µM
//
molecule: CN(CCO)CCC1COc2ccccc2O1 (stereo unspecified)
system_under_test: ACHN renal
TGI: > 10 µM
//
molecule: CCN(CC)CCOCCOCC1(c2ccc(Cl)c(Cl)c2)CCCCC1
system_under_test: ACHN renal
TGI: 28.5 µM
//
molecule: COc1ccccc1N1C(=O)CSC1c1cccc(Oc2ccccc2)c1 (stereo unspecified)
system_under_test: ACHN renal
TGI: 38.2 µM

====

TGI by entry:
- Test system: SR leukemia
- test_name: NCI tumour cell line growth inhibition, 48 h

compound: CSc1c(C(N)=S)c(N)nn1-c1ccccc1
system_under_test: SR leukemia
TGI: > 100 µM
--
compound: Cc1ccc([N+](=O)[O-])cc1NC(=O)C(=O)Cc1nc2ccc(C(=O)c3ccccc3)cc2[nH]c1=O
system_under_test: SR leukemia
TGI: > 100 µM
--
compound: COc1ccc(CC2Cc3ccccc3CC(=O)N2)cc1OC (stereo unspecified)
system_under_test: SR leukemia
TGI: > 100 µM
--
compound: COc1cc(/C=C2\C(=O)Nc3ccc(Cl)cc32)cc(OC)c1OC
system_under_test: SR leukemia
TGI: > 100 µM
--
compound: COc1cc(-c2n/c(=C\c3c(O)[nH]c4ccccc34)cc3c2=Nc2ccccc2-3)ccc1F
system_under_test: SR leukemia
TGI: 20.2 µM
--
compound: CCOC(=O)c1ccc(Nc2nc3ccccc3n3cccc23)cc1
system_under_test: SR leukemia
TGI: > 100 µM
--
compound: Cc1c(C)c(S(=O)(=O)N(CCCN)OCCCN)c(C)c2c1OC(C)(C)CC2
system_under_test: SR leukemia
TGI: 33.4 µM
--
compound: CCOC(=O)C1=NN(c2ccc(C)cc2)C2(c3ccccc3)C=C(c3ccccc3)N(C)CCN12 (stereo unspecified)
system_under_test: SR leukemia
TGI: > 100 µM
--
compound: COc1ccc(-c2c(NC(=O)Nc3ccc(Cl)c(C(F)(F)F)c3)cnn2-c2ccc(S(N)(=O)=O)cc2)cc1
system_under_test: SR leukemia
TGI: 5.83 µM
--
compound: CC(=O)N(N=O)c1ccc(N(N=O)C(C)=O)cc1
system_under_test: SR leukemia
TGI: > 100 µM
--
compound: COc1cccc(/C=C2\N=C(Cl)OC2=O)c1O
system_under_test: SR leukemia
TGI: > 100 µM
